Sourced from ChEMBL document CHEMBL2346638

viability at 96 h, 5 µM: recorded values
assay: Toxicity in HASMC assessed as cell viability at 5 uM after 96 hrs by MTT assay relative to control; type: cell-based; conditions: human, HASMC cells; read-out: Activity
Give the value in % but do not write % after it.

Some compounds with known viability at 96 h, 5 µM results, for comparison:
CCCCCCCCNc1cccc(NCCCCCCCC)c1[N+](=O)[O-]	82.9
CCCCCCCCCNc1cccc(NCCCCCCCCC)c1[N+](=O)[O-]	75
CCCCCCCNc1ccc([N+](=O)[O-])c(NCCCCCCC)c1	87.6
CCCCCCCCNc1ccc([N+](=O)[O-])c(NCCCCCCCC)c1	87.2
CCCCCCCCCCNc1ccc([N+](=O)[O-])c(NCCCCCCCCCC)c1	88

Prompt line: Which viability at 96 h, 5 µM is listed for CCCCCCNc1cccc(NCCCCCC)c1[N+](=O)[O-] ?
Response line: 84

Prompt line: Which viability at 96 h, 5 µM is listed for CCCCCCCCCNc1ccc([N+](=O)[O-])c(NCCCCCCCCC)c1 ?
Response line: 86

Prompt line: Which viability at 96 h, 5 µM is listed for CCCCCCCNc1cccc(NCCCCCCC)c1[N+](=O)[O-] ?
Response line: 82

Prompt line: Which viability at 96 h, 5 µM is listed for CCCCCCNc1ccc([N+](=O)[O-])c(NCCCCCC)c1 ?
Response line: 84

Prompt line: Which viability at 96 h, 5 µM is listed for CCCCCCCCCCNc1cccc(NCCCCCCCCCC)c1[N+](=O)[O-] ?
Response line: 70

---

half-life: recorded values
test: Half life of the compound; type: physicochemical
Quote the value and follow it with the unit of measurement.

Some compounds with known half-life results, for comparison:
CCCCCCCCCCN(N=O)c1ccc([N+](=O)[O-])c(N(CCCCCCCCCC)N=O)c1	2.5 days
CCCCCCCCN(N=O)c1cccc(N(CCCCCCCC)N=O)c1[N+](=O)[O-]	3.88 days

Prompt line: Which half-life is listed for CCCCCCCCCN(N=O)c1ccc([N+](=O)[O-])c(N(CCCCCCCCC)N=O)c1 ?
Response line: 2.88 days

Prompt line: Which half-life is listed for CCCCCCCN(N=O)c1ccc([N+](=O)[O-])c(N(CCCCCCC)N=O)c1 ?
Response line: 3.62 days

Prompt line: Which half-life is listed for CCCCCCN(N=O)c1cccc(N(CCCCCC)N=O)c1[N+](=O)[O-] ?
Response line: 5.83 days

---

test: Toxicity in HASMC assessed as cell viability at 1 uM after 96 hrs by MTT assay relative to control; type: cell-based; conditions: human, HASMC cells; read-out: Activity
viability at 96 h, 1 µM: recorded values
Give the value in % but do not write % after it.

CCCCCCCNc1ccc([N+](=O)[O-])c(NCCCCCCC)c1	87
CCCCCCCCCCNc1cccc(NCCCCCCCCCC)c1[N+](=O)[O-]	75.5
CCCCCCNc1cccc(NCCCCCC)c1[N+](=O)[O-]	82

Prompt line: Which viability at 96 h, 1 µM is listed for CCCCCCCCNc1cccc(NCCCCCCCC)c1[N+](=O)[O-] ?
Response line: 89.7

Prompt line: Which viability at 96 h, 1 µM is listed for CCCCCCNc1ccc([N+](=O)[O-])c(NCCCCCC)c1 ?
Response line: 86.1

---

tested on: HASMC; assay: Toxicity in HASMC assessed as cell viability using calcein AM and ethidium homodimer-1 by LIVE/DEAD assay; format: cell-based; settings: human
measure: Activity

Some compounds with known Activity results, for comparison:
CCCCCCCCCCNc1cccc(NCCCCCCCCCC)c1[N+](=O)[O-]	Toxic
CCCCCCCNc1ccc([N+](=O)[O-])c(NCCCCCCC)c1	Non-toxic
CCCCCCCCNc1ccc([N+](=O)[O-])c(NCCCCCCCC)c1	Non-toxic
CCCCCCCNc1cccc(NCCCCCCC)c1[N+](=O)[O-]	Non-toxic
CCCCCCNc1cccc(NCCCCCC)c1[N+](=O)[O-]	Non-toxic

Prompt line: Which Activity is listed for CCCCCCNc1ccc([N+](=O)[O-])c(NCCCCCC)c1 ?
Response line: Non-toxic

---

viability at 96 h, 1 µM: recorded values
experiment: Toxicity in HASMC assessed as cell viability at 1 uM after 96 hrs by MTT assay relative to control; format: cell-based; details: human, HASMC cells; read-out: Activity
Give the value in % but do not write % after it.

Some molecules with known viability at 96 h, 1 µM results, for comparison:
CCCCCCCNc1cccc(NCCCCCCC)c1[N+](=O)[O-]	80
CCCCCCCCCNc1cccc(NCCCCCCCCC)c1[N+](=O)[O-]	78
CCCCCCCCCCNc1ccc([N+](=O)[O-])c(NCCCCCCCCCC)c1	87.4
CCCCCCCCCNc1ccc([N+](=O)[O-])c(NCCCCCCCCC)c1	86.3

The record that follows has no viability at 96 h, 1 µM shown yet.
Prompt line: Which viability at 96 h, 1 µM is listed for CCCCCCCCNc1ccc([N+](=O)[O-])c(NCCCCCCCC)c1 ?
Response line: 89.6
